Test system: ALOMY
method_description: Pre-emergence action at 320 g/ha against ALOMY
Format: in vivo, Alopecurus myosuroides
condition: Alopecurus myosuroides, 504 h, scored visually after about 3 weeks vs untreated controls (100% = plants have died)
value_type: pest or weed control at 320 g/ha (%)
The figure you give is taken to be in %; do not add the unit.

[
  {
    "molecule": "COC(=O)C(C)Oc1nn(-c2ccccc2)c(-c2ccc(F)nc2)c1Cl (stereo not drawn)",
    "value_type": "pest or weed control at 320 g/ha",
    "number": 100
  },
  {
    "molecule": "COC(=O)[C@@H](C)Oc1nn(-c2ccccc2F)c(-c2cncnc2)c1Br",
    "value_type": "pest or weed control at 320 g/ha",
    "number": 100
  },
  {
    "molecule": "COC(=O)COc1nn(-c2ccccc2F)c(-c2cncnc2)c1Br",
    "value_type": "pest or weed control at 320 g/ha",
    "number": 100
  },
  {
    "molecule": "O=C(O)COc1nn(-c2ccccc2F)c(-c2ccc(F)nc2)c1Br",
    "value_type": "pest or weed control at 320 g/ha",
    "number": 100
  },
  {
    "molecule": "O=C(O)COc1nn(-c2ccccc2F)c(-c2cncnc2)c1Br",
    "value_type": "pest or weed control at 320 g/ha",
    "number": 80
  },
  {
    "molecule": "C=CCNC(=O)COc1nn(-c2ccccc2F)c(-c2ccc(F)nc2)c1Br",
    "value_type": "pest or weed control at 320 g/ha",
    "number": 100
  }
]

Prompt: Name the recorded pest or weed control at 320 g/ha for "COC(=O)[C@@H](C)Oc1nn(-c2ccccc2F)c(-c2ccc(F)nc2)c1Br" .
Response: 90

Prompt: And for "CCOC(=O)COc1nn(-c2ccccc2F)c(-c2ccc(F)nc2)c1Br" ?
Response: 100

Prompt: And for "CCOC(=O)COc1nn(-c2ccccc2F)c(-c2ccnc(F)c2)c1Br" ?
Response: 100

----------
Test system: ALOMY
method_description: Pre-emergence action at 320 g/ha against ALOMY
Type: in vivo, Alopecurus myosuroides
condition: scored visually after about 3 weeks vs untreated controls (100% = plants have died)
Pre-emergence action at 320 g/ha against ALOMY in % values by entry
# include the unit after the value

Please review the following examples before continuing.
[
  {
    "compound": "CCOC(=O)COc1nn(-c2ccccc2F)c(-c2ccc(F)nc2)c1F",
    "assayed_target": "ALOMY",
    "result": "90%"
  },
  {
    "compound": "COC(=O)COc1nn(-c2ccccc2F)c(-c2ccc(F)nc2)c1I",
    "assayed_target": "ALOMY",
    "result": "90%"
  },
  {
    "compound": "O=C(COc1nn(-c2ccccc2F)c(-c2ccc(F)nc2)c1Br)OCCCl",
    "assayed_target": "ALOMY",
    "result": "100%"
  },
  {
    "compound": "CCOC(=O)COc1nn(-c2ccccc2F)c(-c2ccc(F)nc2)c1C(F)(F)F",
    "assayed_target": "ALOMY",
    "result": "100%"
  },
  {
    "compound": "CC(C)OC(=O)COc1nn(-c2ccccc2F)c(-c2ccc(F)nc2)c1Br",
    "assayed_target": "ALOMY",
    "result": "100%"
  }
]

Prompt: Name the recorded Pre-emergence action at 320 g/ha against ALOMY in % for CCOC(=O)C(F)Oc1nn(-c2ccccc2F)c(-c2ccc(F)nc2)c1Br (stereo not drawn) .
Response: 80%

Prompt: And for "CCOC(=O)[C@@H](C)Oc1nn(-c2cc(F)ccc2F)c(-c2cncc(F)c2)c1Br" ?
Response: 100%

Prompt: And for "CCOC(=O)COc1nn(-c2ccccc2F)c(-c2ccnc(F)c2)c1Br" ?
Response: 90%

Prompt: And for "COC(=O)COc1nn(-c2ccc(F)cc2)c(-c2ccc(F)nc2)c1Br" ?
Response: 90%

Prompt: And for "COC(=O)COc1nn(-c2ccccc2F)c(-c2ccc(F)nc2)c1Br" ?
Response: 100%

Prompt: And for "COC(=O)COc1nn(-c2ccccc2F)c(-c2ccc(F)nc2)c1F" ?
Response: 100%

Prompt: And for "COC(=O)[C@H](C)Oc1nn(-c2cc(F)ccc2F)c(-c2ccc(F)nc2)c1Br" ?
Response: 80%
